Data credit: patent US20240376185A1

Record form. Attribute: Effective SDA Concentration at A450 0.3. Fill in for each entry.
# Tested System: tetanus neurotoxin (TeNT), authentic tetanus holotoxin (Clostridium tetani, UniProt P04958 2-1315)
# Sequence (P04958 2-457 limits assumed, chain 1 of 2): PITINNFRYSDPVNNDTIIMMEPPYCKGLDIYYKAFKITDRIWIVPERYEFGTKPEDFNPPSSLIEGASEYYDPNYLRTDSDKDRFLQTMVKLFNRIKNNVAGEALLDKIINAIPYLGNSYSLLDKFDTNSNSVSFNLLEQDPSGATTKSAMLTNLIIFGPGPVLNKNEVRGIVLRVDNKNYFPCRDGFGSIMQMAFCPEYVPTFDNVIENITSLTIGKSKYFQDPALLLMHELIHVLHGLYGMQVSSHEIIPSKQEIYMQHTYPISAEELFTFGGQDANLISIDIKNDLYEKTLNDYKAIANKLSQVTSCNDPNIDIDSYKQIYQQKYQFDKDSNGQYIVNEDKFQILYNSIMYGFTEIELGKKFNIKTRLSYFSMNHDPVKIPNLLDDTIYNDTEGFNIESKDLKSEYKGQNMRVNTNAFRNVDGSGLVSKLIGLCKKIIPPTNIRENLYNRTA
# Sequence (P04958 458-1315 limits assumed, chain 2 of 2): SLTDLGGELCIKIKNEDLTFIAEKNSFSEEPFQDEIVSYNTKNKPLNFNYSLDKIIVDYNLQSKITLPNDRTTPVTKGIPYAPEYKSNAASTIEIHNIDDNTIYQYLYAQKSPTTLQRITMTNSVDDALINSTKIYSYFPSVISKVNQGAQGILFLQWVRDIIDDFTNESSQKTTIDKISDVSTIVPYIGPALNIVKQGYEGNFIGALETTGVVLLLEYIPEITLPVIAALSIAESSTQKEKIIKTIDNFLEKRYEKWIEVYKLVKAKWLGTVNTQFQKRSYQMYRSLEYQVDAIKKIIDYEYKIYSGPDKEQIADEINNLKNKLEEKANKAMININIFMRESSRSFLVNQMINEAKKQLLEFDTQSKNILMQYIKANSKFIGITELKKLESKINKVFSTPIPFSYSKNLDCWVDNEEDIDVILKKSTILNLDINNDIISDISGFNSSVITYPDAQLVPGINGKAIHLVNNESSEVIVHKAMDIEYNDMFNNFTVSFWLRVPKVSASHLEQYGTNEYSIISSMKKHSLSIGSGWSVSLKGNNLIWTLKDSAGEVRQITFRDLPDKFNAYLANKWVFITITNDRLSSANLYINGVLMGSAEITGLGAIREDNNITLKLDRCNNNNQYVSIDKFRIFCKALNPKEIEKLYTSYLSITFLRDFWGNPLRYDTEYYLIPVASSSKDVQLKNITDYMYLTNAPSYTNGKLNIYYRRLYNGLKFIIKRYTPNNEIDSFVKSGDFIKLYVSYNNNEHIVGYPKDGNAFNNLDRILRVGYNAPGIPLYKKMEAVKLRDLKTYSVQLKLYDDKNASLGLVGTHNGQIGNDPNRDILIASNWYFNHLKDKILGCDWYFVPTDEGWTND
# Assay Text: bridging ELISA: coated TeNT, SDA, biotinylated TeNT, StrepPO (bivalent binding)
Answers are plain numbers, in ng/mL.

Look over these answered cases.
Binder: SVT15-3FW4M-GS2-SVG13M4-H6 (bispecific antibody) QVQLQESGGGLVQTGGSLRLSCRASGRAFANYHFGWFRQAPGKDREFVASISWKGGSTYYANFALGRFTSSVDRAESSVYLQMSGLTPEDTATYYCAAHDGGDWNYHTGMDYWGQGTQVTVSSGGGGSGGGSEVQLVESGGGLVQPGGSLRLSCEASGFTFDDYGMSWVRQAPGKGLEWVSSLTPNGGSTYYADSVKGRFTISRDNAKNTLYLQMNSLKPEDTALYYCAKNSYYGAMDYWGQGTQVTVSSHHHHHH
Effective SDA Concentration at A450 0.3 / ng/mL: 23
--
Binder: SVT06-GS2-SVG13M4-H6 (bispecific antibody) QVQLQESGGGSVQAGGSLRLSCTASELSYDDYTIAWFRRAAGEGRVEDGEGVASITKSYDRAYDNKINYGHSVKGRFTISRDNAKNTVYLQMTDLLPSDTAVYYCALDITPPGGVGASLTEGFLFDYWGQGTQVTVSSGGGGSGGGSEVQLVESGGGLVQPGGSLRLSCEASGFTFDDYGMSWVRQAPGKGLEWVSSLTPNGGSTYYADSVKGRFTISRDNAKNTLYLQMNSLKPEDTALYYCAKNSYYGAMDYWGQGTQVTVSSHHHHHH
Effective SDA Concentration at A450 0.3 / ng/mL: 9.6

Continue with the binder presented below.
get_value(item= SVT06L (VHH) VHH: QVQLQESGGGSVQAGGSLRLSCTASELSYDDYTIAWFRRAAGEGRVEDGEGVASITKSYDRAYDNKINYGHSVKGRFTISRDNAKNTVYLQMTDLLPSDTAVYYCALDITPPGGVGASLTEGFLFDYWGQGTQVTVSS , readout=Effective SDA Concentration at A450 0.3) returns 64
